experiment: NCI Yeast Anticancer Drug Screen. Data for the wt1 strain (AID 149);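 note: 0% = growth of vehicle-treated wt1 cultures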; conditions: S. cerevisiae wt1 strain (SPY 50644) growth inhibition; at 3.7 µM
The panel holds about 79,000 compounds, 15% with a hit somewhere; the sample as a whole holds those more often. Calls of active or inactive are those of the source. Cut-off read from the data, not from the text of the source: active = growth inhibition above about 70%; inactive = the rest.
Answer with one of the outcomes T = active, F = inactive

Reference set, count: 5
molecule	categoryLabel
COC(=O)c1ccc(CCC2=CC(=O)C(Br)=CC2=O)cc1	F
c1ccc(-c2ccnc3c2ccc2c(-c4ccccc4)ccnc23)cc1	F
OC(c1ccc(F)cc1)(c1ccc(F)cc1)C1CC1	F
CCC(C)COC(=O)c1ccc(N=Cc2ccc(C=Nc3ccc(C(=O)OCC(C)CC)cc3)cc2)cc1 (stereo unspecified)	F
C=C(CN(C)C)C(=O)c1cc(C)ccc1C	F

### Prompt // param item: COC(=O)CCNc1c2ccccc2nc2cccc([N+](=O)[O-])c12 ; yields the recorded call
### Response T

### Prompt Dear colleague, could you share the recorded outcome for Fc1ccc(NC(=S)SCc2ccc3c(c2)OCO3)cc1F when you have a moment?
### Response F

### Prompt How did this test come out for COc1cc(C2SCC(=O)N2c2nnc(C(F)(F)F)s2)cc(OC)c1OC (stereo unspecified) ?
### Response F

### Prompt Dear all, I need the recorded test outcome for O=C1C=CC(=C(c2ccccc2)c2ccccc2)c2ccccc21 , thank you.
### Response F

### Prompt Which outcome did this test record for the molecule O=C(NC(Nc1ccc(F)c(Cl)c1)(C(F)(F)F)C(F)(F)F)C(C(F)(F)F)C(F)(F)F ?
### Response F

### Prompt Which result was noted for this molecule in the test: CC(C)(CN1CCCCC1)C(=O)CC(SCCS(=O)(=O)O)c1ccc(Br)cc1 (stereo unspecified)
### Response F

* * *

test: NCI Yeast Anticancer Drug Screen. Data for the rad50 strain (AID 155);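 note: 0% = growth of vehicle-only cultures of the same strain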; conditions: S. cerevisiae rad50 strain growth inhibition; at 3.7 µM; active compounds read high
The panel holds about 79,000 compounds, 15% with a hit somewhere; the sample as a whole holds those more often.
Listed next: entries and their corresponding growth inhibition.
The reply should contain only the number, in %.

Solved cases below.
compound	growth inhibition [%]
Cc1c(Cl)ccc2c1S(=O)(=O)c1cccc(Cl)c1-2	-9
O=c1c2ccccc2ncn1COCc1ccccc1	2
Oc1c(Br)cc(Br)cc1C1CCCCC1	-9
N#Cc1c(N)[nH]c2ccc(Sc3ccccc3)cc12	0

### Prompt Given the compound CO[C@H]1C[C@](C)(O)Cc2cc3c(c(O)c21)C(=O)c1c(O)cc2c(c1C3=O)O[C@@H]1O[C@@]2(C)[C@H](O)[C@@H](N(C)C)[C@@H]1O , write its reported growth inhibition.
### Response -7

### Prompt State its growth inhibition for this compound: Cc1ccc(S(=O)(=O)NC(=O)NC2=NC(C)(C)N(c3ccc(Cl)c(Cl)c3)C(N)=N2)cc1
### Response -4

### Prompt Please report the measured growth inhibition for CC(C)(C)c1nc2c(o1)C(=O)c1ccccc1C2=O
### Response -15

### Prompt For the compound COC(=O)CSSCc1ccc([N+](=O)[O-])cc1 , give its reported growth inhibition.
### Response 20

### Prompt Quick one: give measured growth inhibition for S=C(N/N=C(/c1ccccc1)c1ccccn1)N1CCCCCC1
### Response 6

### Prompt Provide one value: measured growth inhibition of CCCS(=O)(=O)Nc1ccc(Nc2c3ccccc3nc3ccccc23)c(OC)c1
### Response 59

### Prompt For the compound O=[N+]([O-])c1cccc2nc3ccccc3c(NCCCN3CCOCC3)c12 , give its reported growth inhibition.
### Response 94

Values from PubChem BioAssay (NCI)
